procedure_details: Plasma pharmacokinetics after oral TAK-285 (LC-MS/MS, noncompartmental)
Type: in vivo, human (Japanese patients)
settings: human, plasma, oral, 200 mg, single dosing; 200 mg b.i.d., dose escalation cohort; mean (s.d.)
experimental_readout: AUC(0-inf) (ng·h/mL)
Give the number; ng·h/mL is assumed, so skip it.

// lookup AUC(0-inf) for `CC(C)(O)CC(=O)NCCn1ccc2ncnc(Nc3ccc(Oc4cccc(C(F)(F)F)c4)c(Cl)c3)c21`
9530

====

procedure_details: Plasma pharmacokinetics after oral TAK-285 (LC-MS/MS, noncompartmental)
Format: in vivo, human (Japanese patients)
settings: human, plasma, oral, 50 mg, single dosing; 50 mg b.i.d., dose escalation cohort; mean (s.d.)
experimental_readout: AUC(0-inf)
Write the numeric value and append its unit.

Which measured AUC(0-inf) value corresponds to CC(C)(O)CC(=O)NCCn1ccc2ncnc(Nc3ccc(Oc4cccc(C(F)(F)F)c4)c(Cl)c3)c21 [TAK-285] ?
1.97 µg·h/mL

====

procedure_details: Plasma pharmacokinetics after oral TAK-285 (LC-MS/MS, noncompartmental)
Type: in vivo, human (Japanese patients)
settings: human, plasma, oral, 200 mg b.i.d., multiple dosing day 21; 200 mg b.i.d., dose escalation cohort; mean (s.d.); read-out: t1/2 (converted)
experimental_readout: half-life (h)
The figure you give is taken to be in h; do not add the unit.

Quick check: half-life of CC(C)(O)CC(=O)NCCn1ccc2ncnc(Nc3ccc(Oc4cccc(C(F)(F)F)c4)c(Cl)c3)c21 [TAK-285] ?
6.95

====

procedure_details: Plasma pharmacokinetics after oral TAK-285 (LC-MS/MS, noncompartmental)
Format: in vivo, human (Japanese patients)
settings: human, plasma, oral, 200 mg b.i.d., multiple dosing day 21; 200 mg b.i.d., dose escalation cohort; mean (s.d.)
experimental_readout: Cmax (ng/mL)
Enter your answer as a number in ng/mL; do not include the unit.

Requested field: Cmax. Item: `CC(C)(O)CC(=O)NCCn1ccc2ncnc(Nc3ccc(Oc4cccc(C(F)(F)F)c4)c(Cl)c3)c21`
2420

====

procedure_details: Plasma pharmacokinetics after oral TAK-285 (LC-MS/MS, noncompartmental)
Format: in vivo, human (Japanese patients)
settings: human, plasma, oral, 200 mg, single dosing; 200 mg b.i.d., dose escalation cohort; mean (s.d.); read-out: t1/2 (converted)
experimental_readout: half-life
Mention the unit after the number when you answer.

What does the record list as half-life for `CC(C)(O)CC(=O)NCCn1ccc2ncnc(Nc3ccc(Oc4cccc(C(F)(F)F)c4)c(Cl)c3)c21` ?
6.57 h

====

procedure_details: Plasma pharmacokinetics after oral TAK-285 (LC-MS/MS, noncompartmental)
Format: in vivo, human (Japanese patients)
settings: human, plasma, oral; multiple dosing day 21; 100 mg b.i.d., dose escalation cohort; mean (s.d.); read-out: AUC0–tau
experimental_readout: AUC (ng·h/mL)
Express your answer in ng·h/mL, writing the number without its unit.

# lookup: AUC of `CC(C)(O)CC(=O)NCCn1ccc2ncnc(Nc3ccc(Oc4cccc(C(F)(F)F)c4)c(Cl)c3)c21`
6090

====

procedure_details: Plasma pharmacokinetics after oral TAK-285 (LC-MS/MS, noncompartmental)
Type: in vivo, human (Japanese patients)
settings: human, plasma, oral, 50 mg b.i.d., multiple dosing day 21; 50 mg b.i.d., dose escalation cohort; mean (s.d.)
experimental_readout: Cmax

Fill in: Cmax of `CC(C)(O)CC(=O)NCCn1ccc2ncnc(Nc3ccc(Oc4cccc(C(F)(F)F)c4)c(Cl)c3)c21` is ___
358 ng/mL

====

procedure_details: Plasma pharmacokinetics after oral TAK-285 (LC-MS/MS, noncompartmental)
Format: in vivo, human (Japanese patients)
settings: human, plasma, oral, 300 mg, multiple dosing day 28; 300 mg b.i.d., repeated administration cohort; median (range)
experimental_readout: Tmax (h)
Express your answer in h, writing the number without its unit.

Recorded Tmax of `CC(C)(O)CC(=O)NCCn1ccc2ncnc(Nc3ccc(Oc4cccc(C(F)(F)F)c4)c(Cl)c3)c21` , please.
2.97

====

procedure_details: Plasma pharmacokinetics after oral TAK-285 (LC-MS/MS, noncompartmental)
Type: in vivo, human (Japanese patients)
settings: human, plasma, oral, 300 mg, single dosing; 300 mg b.i.d., repeated administration cohort; median (range)
experimental_readout: Tmax (h)
Field: numeric (h). Do not append units.

I have this compound here, `CC(C)(O)CC(=O)NCCn1ccc2ncnc(Nc3ccc(Oc4cccc(C(F)(F)F)c4)c(Cl)c3)c21` , and I need its recorded Tmax.
2.03

====

procedure_details: Plasma pharmacokinetics after oral TAK-285 (LC-MS/MS, noncompartmental)
Format: in vivo, human (Japanese patients)
settings: human, plasma, oral, 50 mg, single dosing; 50 mg b.i.d., dose escalation cohort; mean (s.d.)
experimental_readout: Cmax (ng/mL)
Response body: numeric value in ng/mL, unit text excluded.

For `CC(C)(O)CC(=O)NCCn1ccc2ncnc(Nc3ccc(Oc4cccc(C(F)(F)F)c4)c(Cl)c3)c21` , what is its reported Cmax?
234

====

procedure_details: Plasma pharmacokinetics after oral TAK-285 (LC-MS/MS, noncompartmental)
Format: in vivo, human (Japanese patients)
settings: human, plasma, oral, 50 mg b.i.d., multiple dosing day 21; 50 mg b.i.d., dose escalation cohort; mean (s.d.); read-out: t1/2 (converted)
Experimental: In the dose escalation cohort, plasma samples for PK analysis were collected at predose and up to 72 h after single dose administration and on day 21 after repeated administration of TAK-285. Urine samples were also collected up to 24-h postdose. […] Concentrations of TAK-285 and M-I in plasma and urine were determined using validated liquid chromatography tandem mass spectrometry (LC-MS/MS) methods. […]
experimental_readout: half-life
State the result as a value with its unit after it.

If you can, please state the reported half-life value of `CC(C)(O)CC(=O)NCCn1ccc2ncnc(Nc3ccc(Oc4cccc(C(F)(F)F)c4)c(Cl)c3)c21` .
7.49 h

====

procedure_details: Plasma pharmacokinetics after oral TAK-285 (LC-MS/MS, noncompartmental)
Type: in vivo, human (Japanese patients)
settings: human, plasma, oral, 100 mg, single dosing; 100 mg b.i.d., dose escalation cohort; mean (s.d.)
experimental_readout: AUC(0-inf)

Bench note: what AUC(0-inf) did `CC(C)(O)CC(=O)NCCn1ccc2ncnc(Nc3ccc(Oc4cccc(C(F)(F)F)c4)c(Cl)c3)c21` show?
2820 ng·h/mL

====

procedure_details: Plasma pharmacokinetics after oral TAK-285 (LC-MS/MS, noncompartmental)
Type: in vivo, human (Japanese patients)
settings: human, plasma, oral, 300 mg b.i.d., multiple dosing day 21; 300 mg b.i.d., dose escalation cohort; mean (s.d.)
experimental_readout: Cmax (µg/mL)
Express your answer in µg/mL, writing the number without its unit.

What measured Cmax goes with `CC(C)(O)CC(=O)NCCn1ccc2ncnc(Nc3ccc(Oc4cccc(C(F)(F)F)c4)c(Cl)c3)c21` ?
3.7

====

procedure_details: Plasma pharmacokinetics after oral TAK-285 (LC-MS/MS, noncompartmental)
Format: in vivo, human (Japanese patients)
settings: human, plasma, oral, 200 mg, single dosing; 200 mg b.i.d., dose escalation cohort; mean (s.d.)
experimental_readout: Cmax
A complete answer gives the number and then names the unit.

For the compound shown here, `CC(C)(O)CC(=O)NCCn1ccc2ncnc(Nc3ccc(Oc4cccc(C(F)(F)F)c4)c(Cl)c3)c21` , give the reported Cmax.
965 ng/mL

====

procedure_details: Plasma pharmacokinetics after oral TAK-285 (LC-MS/MS, noncompartmental)
Format: in vivo, human (Japanese patients)
settings: human, plasma, oral, 200 mg b.i.d., multiple dosing day 21; 200 mg b.i.d., dose escalation cohort; median (range)
experimental_readout: Tmax (h)
The response must be a number in h with no trailing unit.

Endpoint output: Tmax of `CC(C)(O)CC(=O)NCCn1ccc2ncnc(Nc3ccc(Oc4cccc(C(F)(F)F)c4)c(Cl)c3)c21` . Value?
2

====

procedure_details: Plasma pharmacokinetics after oral TAK-285 (LC-MS/MS, noncompartmental)
Type: in vivo, human (Japanese patients)
settings: human, plasma, oral, 50 mg, single dosing; 50 mg q.d., dose escalation cohort; mean (s.d.); read-out: t1/2 (converted)
experimental_readout: half-life (h)
Kindly answer with a numeric value in h, unit omitted.

Given `CC(C)(O)CC(=O)NCCn1ccc2ncnc(Nc3ccc(Oc4cccc(C(F)(F)F)c4)c(Cl)c3)c21` , state its recorded half-life.
7.27

====

procedure_details: Plasma pharmacokinetics after oral TAK-285 (LC-MS/MS, noncompartmental)
Assay type: in vivo, human (Japanese patients)
settings: human, plasma, oral, 50 mg q.d., multiple dosing day 21; 50 mg q.d., dose escalation cohort; median (range)
Description: In the dose escalation cohort, plasma samples for PK analysis were collected at predose and up to 72 h after single dose administration and on day 21 after repeated administration of TAK-285. Urine samples were also collected up to 24-h postdose. […] Concentrations of TAK-285 and M-I in plasma and urine were determined using validated liquid chromatography tandem mass spectrometry (LC-MS/MS) methods. […]
experimental_readout: Tmax

Look at this compound and give its reported Tmax. `CC(C)(O)CC(=O)NCCn1ccc2ncnc(Nc3ccc(Oc4cccc(C(F)(F)F)c4)c(Cl)c3)c21`
2 h
